molecular target: LAT1 (Mus musculus); experiment: Inhibition type of [14C]-L-Leu uptake (Hanes-Woolf plots) in BV2 cells; assay type: cell-based; settings: of [14C]-L-Leu uptake; BV2; concluded from Km and Vmax
Quantity Kind: Inhibition Type

Some solved cases for reference:
C[C@H](C(=O)OCc1ccc(C[C@@H](N)C(=O)O)cc1)c1cccc(C(=O)c2ccccc2)c1 | Mixed type
COc1ccc2cc([C@H](C)C(=O)Nc3cccc(C[C@H](N)C(=O)O)c3)ccc2c1 | Non-competitive
COc1ccc2cc([C@H](C)C(=O)Oc3cccc(C[C@H](N)C(=O)O)c3)ccc2c1 | Non-competitive
CC(C(=O)Nc1ccc(CC(N)C(=O)O)cc1)c1cccc(C(=O)c2ccccc2)c1 (centres unmarked) | Non-competitive

Give the measured Inhibition Type of "C[C@H](C(=O)Oc1cccc(C[C@H](N)C(=O)O)c1)c1cccc(C(=O)c2ccccc2)c1" .
Non-competitive

What do you have for "COc1cc(/C=C/C(=O)Nc2cccc(C[C@H](N)C(=O)O)c2)ccc1O" ?
Non-competitive

Another: NC(Cc1cccc(C(=O)Oc2ccc(-c3ccc(-c4ccc5c(c4)COC5=O)s3)cc2)c1)C(=O)O (centres unmarked)
Mixed type

Now this one: "C[C@H](C(=O)Oc1cccc(C[C@H](N)C(=O)O)c1)c1ccc(-c2ccccc2)c(F)c1"
Mixed type

"CC(C)Cc1ccc([C@H](C)C(=O)Nc2cccc(C[C@H](N)C(=O)O)c2)cc1" ?
Mixed type

What about this compound? "C[C@H](C(=O)Nc1cccc(C[C@H](N)C(=O)O)c1)c1cccc(C(=O)c2ccccc2)c1"
Mixed type

---

# Lookup of reported half-life at 100 μM keyed by entry
test: Time-dependent cellular uptake of compounds into BV2 cells (LC-MS/MS); assay type: cell-based, mouse; details: mouse, BV2 microglia cells, 100 µM compound, 1–60 min, mean ± SD, n = 3, read-out: T½ of cellular uptake
Numeric answer only, unit min assumed.

Below, each entry is followed by its recorded half-life at 100 μM result.
NC(Cc1cccc(C(=O)Oc2ccc(-c3ccc(-c4ccc5c(c4)COC5=O)s3)cc2)c1)C(=O)O (stereo not drawn) | 9.11
C[C@H](C(=O)Oc1cccc(C[C@H](N)C(=O)O)c1)c1ccc(-c2ccccc2)c(F)c1 | 19.2
CC(C)Cc1ccc([C@H](C)C(=O)Oc2cccc(C[C@H](N)C(=O)O)c2)cc1 | 3.6

What does the record list as half-life at 100 μM for "C[C@H](C(=O)Nc1cccc(C[C@H](N)C(=O)O)c1)c1cccc(C(=O)c2ccccc2)c1" ?
1.97

Could you do the same for "COc1ccc2cc([C@H](C)C(=O)Oc3cccc(C[C@H](N)C(=O)O)c3)ccc2c1" , please?
12.5

---

target: LAT1 (Mus musculus); experiment: Cis-inhibition of radiolabelled LAT1-probe substrate uptake into BV2 cells; format: cell-based; conditions: probe [3H]-L-Met, 5 min, mean ± SD, n = 3–4, read-out: IC50 of [3H]-L-Met uptake
Quantity Kind: pIC50
Field pIC50 (float): negative decimal logarithm of the concentration in molar.

Study these solved cases before continuing.
C[C@H](C(=O)OCc1ccc(C[C@@H](N)C(=O)O)cc1)c1cccc(C(=O)c2ccccc2)c1 [Compound 14] | 4.49
COc1cc(/C=C/C(=O)Oc2cccc(C[C@H](N)C(=O)O)c2)ccc1O [Compound 7] | 4.87
N[C@@H](Cc1cccc(NC(=O)c2ccccc2O)c1)C(=O)O [Compound 8] | 4.92
CC(C)Cc1ccc([C@H](C)C(=O)Nc2cccc(C[C@H](N)C(=O)O)c2)cc1 [Compound 10] | 5.02

Quick check: pIC50 on LAT1 (Mus musculus), item C[C@H](C(=O)Oc1cccc(C[C@H](N)C(=O)O)c1)c1cccc(C(=O)c2ccccc2)c1 [Compound 4] ?
4.58

Follow-up item: COc1ccc2cc([C@H](C)C(=O)Nc3cccc(C[C@H](N)C(=O)O)c3)ccc2c1 [Compound 11]
4.98

---

target: LAT1 (Mus musculus, UniProt Q9Z127); test: Concentration-dependent cellular uptake into BV2 cells, Eadie–Hofstee analysis, Transport Type 1 (LAT1); assay type: cell-based; details: 1–200 µM, 30 min, BV2; Eadie–Hofstee; mean ± SD, n = 3
Sequence (Q9Z127 whole entry): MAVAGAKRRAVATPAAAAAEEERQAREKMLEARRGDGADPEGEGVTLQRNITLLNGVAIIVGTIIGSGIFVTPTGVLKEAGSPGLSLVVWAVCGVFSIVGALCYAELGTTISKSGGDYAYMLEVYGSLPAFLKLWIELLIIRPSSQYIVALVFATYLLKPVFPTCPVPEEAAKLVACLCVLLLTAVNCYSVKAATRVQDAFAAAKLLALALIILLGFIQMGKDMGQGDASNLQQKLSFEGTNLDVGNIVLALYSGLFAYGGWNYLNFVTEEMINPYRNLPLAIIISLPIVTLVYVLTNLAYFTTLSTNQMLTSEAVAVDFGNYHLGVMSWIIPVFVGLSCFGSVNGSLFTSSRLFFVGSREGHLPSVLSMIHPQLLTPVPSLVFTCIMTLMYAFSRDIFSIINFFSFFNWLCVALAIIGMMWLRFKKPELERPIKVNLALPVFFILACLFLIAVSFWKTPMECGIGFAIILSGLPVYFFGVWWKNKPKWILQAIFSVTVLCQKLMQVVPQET
Sequence (P10852 whole entry partner): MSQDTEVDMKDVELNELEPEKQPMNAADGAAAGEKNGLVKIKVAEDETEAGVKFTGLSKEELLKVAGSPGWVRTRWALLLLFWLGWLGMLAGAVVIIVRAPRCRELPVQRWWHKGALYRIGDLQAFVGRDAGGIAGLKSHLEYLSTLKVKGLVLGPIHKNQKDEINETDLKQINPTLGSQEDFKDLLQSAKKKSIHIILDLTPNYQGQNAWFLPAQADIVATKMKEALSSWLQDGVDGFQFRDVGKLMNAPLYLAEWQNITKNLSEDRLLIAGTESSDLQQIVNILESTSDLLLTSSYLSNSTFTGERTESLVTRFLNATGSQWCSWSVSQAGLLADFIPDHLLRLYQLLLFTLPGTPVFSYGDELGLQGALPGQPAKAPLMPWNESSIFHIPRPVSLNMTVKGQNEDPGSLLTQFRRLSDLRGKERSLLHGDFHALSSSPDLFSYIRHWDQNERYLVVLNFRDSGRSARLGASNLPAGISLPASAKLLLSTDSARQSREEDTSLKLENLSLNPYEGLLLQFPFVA
Quantity Kind: Transport Type 1 (LAT1) Vmax (pmol/mg/min)
Please state the figure in pmol/mg/min; there is no need to write the unit.

These recorded examples may help you get a feel for the data.
C[C@H](C(=O)Oc1cccc(C[C@H](N)C(=O)O)c1)c1cccc(C(=O)c2ccccc2)c1 | 88
NC(Cc1cccc(C(=O)Oc2ccc(-c3ccc(-c4ccc5c(c4)COC5=O)s3)cc2)c1)C(=O)O (centres unmarked) | 750
COc1ccc2cc([C@H](C)C(=O)Nc3cccc(C[C@H](N)C(=O)O)c3)ccc2c1 | 53

Fill blank: measured Transport Type 1 (LAT1) Vmax of the compound COc1cc(C=CC(=O)NCc2cccc(CC(N)C(=O)O)c2)ccc1O (centres unmarked) is ____.
0.11

Same thing, different compound: "CC(C)Cc1ccc([C@H](C)C(=O)Oc2cccc(C[C@H](N)C(=O)O)c2)cc1"
63

Next: "C[C@H](C(=O)Nc1cccc(C[C@H](N)C(=O)O)c1)c1cccc(C(=O)c2ccccc2)c1"
0.09

Moving on to "CC(C)Cc1ccc([C@H](C)C(=O)Nc2cccc(C[C@H](N)C(=O)O)c2)cc1"
205

Try the compound "COc1ccc2cc([C@H](C)C(=O)Oc3cccc(C[C@H](N)C(=O)O)c3)ccc2c1"
280

---

molecular target: LAT1 (Mus musculus); test: Cis-inhibition of radiolabelled LAT1-probe substrate uptake into BV2 cells; assay type: cell-based; details: probe [14C]-L-Leu, 5 min, mean ± SD, n = 3–4, read-out: IC50 of [14C]-L-Leu uptake
pIC50: −log10 of the molar value.
Each entry gets n if its pIC50 stays under 5, and y if its pIC50 is 5 or above.

Illustrative cases are given below, each with its answer.
C[C@H](C(=O)Nc1cccc(C[C@H](N)C(=O)O)c1)c1cccc(C(=O)c2ccccc2)c1 | y
CC(C(=O)Nc1ccc(CC(N)C(=O)O)cc1)c1cccc(C(=O)c2ccccc2)c1 (stereo not shown) | n
COc1cc(C=CC(=O)NCc2cccc(CC(N)C(=O)O)c2)ccc1O (stereo not shown) | n

Can "COc1cc(/C=C/C(=O)Nc2cccc(C[C@H](N)C(=O)O)c2)ccc1O" be said to have pIC50 at or above 5?
n

Again, but for NC(Cc1cccc(C(=O)Oc2ccc(-c3ccc(-c4ccc5c(c4)COC5=O)s3)cc2)c1)C(=O)O (stereo not shown)
y

Same question for "C[C@H](C(=O)Oc1cccc(C[C@H](N)C(=O)O)c1)c1cccc(C(=O)c2ccccc2)c1" please.
n

Next record, please: "COc1cc(/C=C/C(=O)Oc2cccc(C[C@H](N)C(=O)O)c2)ccc1O"
n

---

IC50 for assorted compounds
Target: LAT1 (Mus musculus)
Assay: Inhibition type of [14C]-L-Leu uptake (Hanes-Woolf plots) in BV2 cells
Format: cell-based
Settings: Table 2; compound concentration used in the inhibition type study, corresponding to IC50 of [14C]-L-Leu uptake
Description: After removal of the culture medium, the BV2 cells were carefully washed with pre-warmed HBSS (Hank’s balanced salt solution) containing 125.0 mM choline chloride, 4.8 mM KCl, 1.2 mM MgSO4, 1.2 mM KH2PO4, 1.3 mM CaCl2, 5.6 mM glucose, and 25.0 mM HEPES (pH 7.4 adjusted with 1 M NaOH). Pre-incubation was done with 500 μL of pre-warmed HBSS at 37 °C for 10 min before adding substrates (250 μL in HBSS) for the uptake experiments. […]
API: value field is a number in µM; no unit string.

Here is how some compounds turned out for IC50.
C[C@H](C(=O)Nc1cccc(C[C@H](N)C(=O)O)c1)c1cccc(C(=O)c2ccccc2)c1 | 3
COc1ccc2cc([C@H](C)C(=O)Nc3cccc(C[C@H](N)C(=O)O)c3)ccc2c1 | 10
N[C@@H](Cc1cccc(NC(=O)c2ccccc2O)c1)C(=O)O | 19
C[C@H](C(=O)Nc1cccc(C[C@H](N)C(=O)O)c1)c1ccc(-c2ccccc2)c(F)c1 | 6
CC(C)Cc1ccc([C@H](C)C(=O)Oc2cccc(C[C@H](N)C(=O)O)c2)cc1 | 5

Requested read-out IC50, target or system LAT1 (Mus musculus), entry "COc1ccc2cc([C@H](C)C(=O)Oc3cccc(C[C@H](N)C(=O)O)c3)ccc2c1"
10

Next record, please: NC(Cc1cccc(C(=O)Oc2ccc(-c3ccc(-c4ccc5c(c4)COC5=O)s3)cc2)c1)C(=O)O (stereo not drawn)
7

Same thing, different compound: "CC(C)Cc1ccc([C@H](C)C(=O)Nc2cccc(C[C@H](N)C(=O)O)c2)cc1"
13

Also "COc1cc(/C=C/C(=O)Oc2cccc(C[C@H](N)C(=O)O)c2)ccc1O" , if possible.
38

Then "C[C@H](C(=O)OCc1ccc(C[C@@H](N)C(=O)O)cc1)c1cccc(C(=O)c2ccccc2)c1" ?
53

Same for "C[C@H](C(=O)Oc1cccc(C[C@H](N)C(=O)O)c1)c1cccc(C(=O)c2ccccc2)c1"
15

Now try "C[C@H](C(=O)Oc1cccc(C[C@H](N)C(=O)O)c1)c1ccc(-c2ccccc2)c(F)c1" .
4

These entries and their values trace back to paper PMC8746705.
